target-under-test: Human BCMA (human) (UniProt Q02223)
experimental-protocol: SPR, IgG on chip, huBCMA analyte
property: kon (M⁻¹ s⁻¹)
One number for each entry, in M⁻¹ s⁻¹.

Check out these entries, answers already filled in.
A02_Rd4_6nM_C23 (antibody, V domains shown, IgG) VH: EVQLLESGGGLVQPGGSLRLSCAASGFTFSSYAMNWVRQAPGKGLEWVSAISDSGGSGWYADSVKGRFTISRDNSKNTLYLQMNSLRAEDTAVYYCARYWPMSLWGQGTLVTVSS VL: EIVLTQSPGTLSLSPGERATLSCRASQSVSVEYLAWYQQKPGQAPRLLMYDASIRATGIPDRFSGSGSGTDFTLTISRLEPEDFAVYYCQQYARWPLTFGQGTKVEIK	1.22e+07
A02_Rd4_0.6nM_C13 (antibody, V domains shown, IgG) VH: EVQLLESGGGLVQPGGSLRLSCAASGFTFSSYAMNWVRQAPGKGLEWVSAISDSGGYRYYADSVKGRFTISRDNSKNTLYLQMNSLRAEDTAVYYCARYWPMSLWGQGTLVTVSS VL: EIVLTQSPGTLSLSPGERATLSCRASQSVSSSYWAWYQQKPGQAPRLLMYDASIRATGIPDRFSGSGSGTDFTLTISRLEPEDFAVYYCQQYESWPLTFGQGTKVEIK	8.53e+06
COMBO_Rd4_6nM_C10 (antibody, V domains shown, IgG) VH: EVQLLESGGGLVQPGGSLRLSCAASGFTFSSYPMSWVRQAPGKGLEWVSAIGGSGGSIHYADSVKGRFTISRDNSKNTLYLQMNSLRAEDTAVYYCARYWPMDSWGQGTLVTVSS VL: EIVLTQSPGTLSLSPGERATLSCRASQSVSSSYWGWYQQKPGQAPRLLMYDASIRATGIPDRFSGSGSGTDFTLTISRLEPEDFAVYYCQQYQCWPLTFGQGTKVEIK	5.47e+06

# batch size: 2; output kon per entry
1. COMBO_Rd4_6nM_C09 (antibody, V domains shown, IgG) VH: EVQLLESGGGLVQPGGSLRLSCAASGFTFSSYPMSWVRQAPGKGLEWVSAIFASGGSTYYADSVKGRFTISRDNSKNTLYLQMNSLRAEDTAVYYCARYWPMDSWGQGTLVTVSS VL: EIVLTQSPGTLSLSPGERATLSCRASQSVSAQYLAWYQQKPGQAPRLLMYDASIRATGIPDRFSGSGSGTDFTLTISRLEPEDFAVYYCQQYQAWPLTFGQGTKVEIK
2. COMBO_Rd4_0.6nM_C17 (antibody, V domains shown, IgG) VH: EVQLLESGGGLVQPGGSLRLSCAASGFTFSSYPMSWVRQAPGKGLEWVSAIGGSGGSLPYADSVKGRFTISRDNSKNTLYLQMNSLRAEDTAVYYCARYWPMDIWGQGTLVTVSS VL: EIVLTQSPGTLSLSPGERATLSCRASQGISSTYLAWYQQKPGQAPRLLMYDASIRATGIPDRFSGSGSGTDFTLTISRLEPEDFAVYYCQQYAYWPLTFGQGTKVEIK

["8.85e+06", "8.68e+06"]

# credit: patent US20190241669A1
